conditions: in water, 298.15 K
TEST_READOUT: solubility (mole fraction)
Response field accepts a number only; no unit should be typed.

So for O=C(Cn1cnnn1)N[C@@H]1C(=O)N2C(C(=O)O)=C(CSc3nncs3)CS[C@H]12 , the logged solubility (mole fraction) turned out to be 2.51e-05

---

details: in acetone, 288.15 K
TEST_READOUT: solubility (mole fraction)

The reported solubility (mole fraction) of the molecule O=C(Cn1cnnn1)N[C@@H]1C(=O)N2C(C(=O)O)=C(CSc3nncs3)CS[C@H]12 was 0.00161

---

conditions: in ethanol, 303.15 K
TEST_READOUT: solubility (mole fraction)
Provide a numeric answer; units are not to be included.

So, O=C(Cn1cnnn1)N[C@@H]1C(=O)N2C(C(=O)O)=C(CSc3nncs3)CS[C@H]12 ? Its solubility (mole fraction) was 0.000104
